assay_target: recombinant soluble homotrimeric HA of A/Hong Kong/2108/03 (H9N2) (Influenza A virus A/Hong Kong/2108/2003 (H9N2))
measurement_protocol: HA microarray, BCC supernatant
experimental_parameters: remark: other sources report otherwise
property_measured: Trimeric HA Binding RLU (RLU)

TCN-527 (5086_C06) (antibody, V domains shown) VH: QVQLQESGPGLVKPSETLSLNCAVSGGSISNYYWSWIRQPPGKGLEWIGYISYNGRPKYNPSLTSRVTISVDTSKDQFSLELRSVTAADTALYYCARETRFGELLSPYDAFEIWGQGTMVTVSS VL: DIQMTQSPSSLSASVGDRVTMTCRASQNIRSYLNWYQQRPGTAPKLLIYAASTLHSGVPSRFSGGGSGTDFTLTINNLQPEDFASYYCQQSYDNPQTFGQGTKVEIK: 16000
TCN-546 (5089_L08) (antibody, V domains shown) VH: QVQLQQWGAGLLKPSETLSLTCGVYGGSLSDYYWSWIRQPPGKGLEWIGEINHSGGTNYNPSLKRRVTISVDTSKKQFSLKMNSVTAADTAVYYCARGTDPDTEVYCRAGNCAAFDFWGQGTLVTVSS VL: EIVLTQSPGTLSLSPGERATLSCRASHFVIGRAVAWYQQKPGQAPRLLIYGASSRATGIPDRFSGSGSGTDFTLTISRLETEDFAVFYCQHYGSSPRYAFGQGTKLEIK: 13000
TCN-550 (5096_F06) (antibody, V domains shown) VH: QVQLQESGPGLVKPSETLSLTCTVSGASINSHYWSWIRQPPGKGLEWIGYVYYSGSTTYNPSLKSRVTLSVDTSKNQFSLNLSSVTAADTAFYYCARHPYDVLTGSGDWFDPWGQGTLVTVSS VL: SYVLTQAPSVSVAPGQTARITCGGNAIGSKKVHWYQHKAGQAPVLVVYDDTDRPSGIPERFSGSNSWSTATLTINRVEAGDEADYYCQVWDFTIDHVVFGGGTKLTVL: 2280
TCN-557 (5081_A04) (antibody, V domains shown) VH: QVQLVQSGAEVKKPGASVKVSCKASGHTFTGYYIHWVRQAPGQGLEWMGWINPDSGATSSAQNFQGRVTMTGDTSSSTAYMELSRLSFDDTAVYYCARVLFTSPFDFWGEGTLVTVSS VL: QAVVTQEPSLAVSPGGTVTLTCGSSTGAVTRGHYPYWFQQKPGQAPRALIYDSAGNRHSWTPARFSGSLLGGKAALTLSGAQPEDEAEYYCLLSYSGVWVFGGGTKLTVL: 35300

// provenance: patent US20150104459A1
